Test system: velvetleaf (Abutilon theophrasti)
ASSAY_INFO: Test B postemergence
Assay type: in vivo
APPLIED_CONDITIONS: Rate 125 g/ha, scale 0 (no effect) to 100 (complete control), 13 to 15 days
// reported Plant response rating, Velvetleaf per item
ASSAY_METRIC: Plant response rating, Velvetleaf

INSERT INTO assay_data (molecule, result) VALUES
  ('COC(=O)c1cccc(N2CCC(n3ccc(C(C)(C)C)n3)C2=O)c1 (stereo not shown)', 50),
  ('CCC(CC)c1ccn(C2OCN(c3cccc(OC(F)(F)F)c3)C2=O)n1 (stereo not shown)', 0),
  ('CC(C)(C)c1ccn(C2CCN(c3cccc(C(F)(F)F)c3)C2=S)n1 (stereo not shown)', 20),
  ('O=C1C(n2ccc(C3CCC3)n2)SCN1c1cccc(OC(F)F)c1 (stereo not shown)', 0),
  ('CC(C)(C)c1nn(C2CCN(c3cccc(C(F)(F)F)c3)C2=O)cc1Cl (stereo not shown)', 0),
  ('CCC(C)c1ccn(C2OCN(c3cccc(OC(F)(F)F)c3)C2=O)n1 (stereo not shown)', 0),
  ('CCC(C)c1ccn(C2SCN(c3cccc(OC(F)(F)F)c3)C2=O)n1 (stereo not shown) [Compound 40]', 0),
  ('COc1ccn(C2CCN(c3cccc(C(F)(F)F)c3)C2=O)n1 (stereo not shown)', 0),
  ('Cc1c(F)cc(N2CCC(n3ccc(C(C)(C)C)n3)C2=O)cc1Br (stereo not shown)', 0),
  ('CSc1cccc(N2CCC(n3ccc(C(C)(C)C)n3)C2=O)c1 (stereo not shown)', 0),
  ('CCC(C)c1ccn(C2SCN(c3cccc(OC(F)(F)F)c3)C2=O)n1 (stereo not shown) [Compound 32]', 0),
  ('O=C1C(n2ccc(C3CCC3)n2)OCN1c1cccc(C(F)(F)F)c1 (stereo not shown)', 0),
  ('Cc1ccc(N2CCC(n3ccc(C(C)(C)C)n3)C2=O)cc1Br (stereo not shown)', 0),
  ('CC(C)(C)c1ccn(C2CCN(c3cccc(Cl)c3)C2=O)n1 (stereo not shown)', 0),
  ('CC(C)Oc1cccc(N2CCC(n3ccc(C(C)C)n3)C2=O)c1 (stereo not shown)', 0),
  ('CCOc1ccn(C2CCN(c3cccc(C(F)(F)F)c3)C2=O)n1 (stereo not shown)', 0),
  ('O=C1C(n2ccc(C3CC3)n2)SCN1c1cccc(C(F)(F)F)c1 (stereo not shown)', 20),
  ('COc1cc(N2CCC(n3ccc(C(C)C)n3)C2=O)ccc1C (stereo not shown)', 20),
  ('Cc1cc(N2CCC(n3ccc(C(C)(C)C)n3)C2=O)ccc1Cl (stereo not shown)', 0);
